Below, each entry is listed alongside its reported GI50.
Tested on: HL-60
method notes: NCI tumour cell line growth inhibition, 48 h
Active and inactive are the calls of the source. Rule as the data show it: active = GI50 up to about 1.1 µM and inactive = higher.

Given Nc1ncc(Cl)c(NCC2(CO)CC(CCc3ccccc3)C2)n1 (stereo not given) , respond with its GI50.
1.13 µM (inactive)

---
Given `Cc1ccc(-c2cc(N)n(-c3nc4c(c(=O)n(C)c(=O)n4C)n3C)n2)cc1` , respond with its GI50.
> 100 µM (inactive)

Given CCN(CC)c1ccc(/C=C/C2=NN(c3cccc(S(=O)(=O)O)c3)C3(C2)SCC(=O)N3c2nc3ccccc3s2)cc1 (stereo not given) , respond with its GI50.
24 µM (inactive)

Given CC1(C)C2CCC1(C)C(NC(=O)CCN1CCOCC1)C2 (stereo not given) , respond with its GI50.
> 100 µM (inactive)

Given COC(=O)/C(=N/NC(N)=O)C(C(=O)OC)C(=O)C(=O)Nc1ccc(Cl)cc1 (stereo not given) , respond with its GI50.
> 76.2 µM (inactive)

###

Tested on: COLO 205
method notes: NCI tumour cell line growth inhibition, 48 h
The source made the active and inactive calls. No stated cut-off is given here; in the data, active = GI50 up to about 1.1 µM and inactive = higher.
Give your call using only these classes: true (1) for active, false (0) for inactive

Would you mind telling me which call this test gave `c1ccc2c(c1)ccn2CCc1c[nH]c2ccccc12` ?
false (0)

Would you mind telling me which call this test gave `N#C/C(=C\c1ccncc1)c1csc2ccccc12` ?
false (0)

Would you mind telling me which call this test gave `O=c1[nH]c(=O)n(COCCO)cc1-c1ccccc1` ?
false (0)

Would you mind telling me which call this test gave CC(O)CC(=O)CO[C@H]1[C@H](O)[C@@H](O)[C@@H](O)[C@@H]2NC(=O)c3c(cc4c(c3O)OCO4)[C@H]21 (stereo not given in full) ?
true (1)

Would you mind telling me which call this test gave `CCOC(=O)C1=C(Nc2ccccc2)SCC1=O` ?
false (0)

Would you mind telling me which call this test gave CC(C)=CCN1CC(C)C(=O)Nc2cc(Cl)ccc21 (stereo not given) ?
false (0)

---
Would you mind telling me which call this test gave `Cc1ccc(S(=O)(=O)ON2C(=O)c3cccc4cc([N+](=O)[O-])cc(c34)C2=O)cc1` ?
false (0)

Would you mind telling me which call this test gave CC12CCC(CC1(Cl)Cl)C2 (stereo not given) ?
false (0)

Would you mind telling me which call this test gave CCCCCCCCCCC(O)[C@H]1CCC(C2CC[C@H]([C@H](O)CCCCCCCCCCC(O)CC3=CC(C)OC3=O)O2)O1 (stereo not given in full) ?
false (0)

Would you mind telling me which call this test gave CCOP(=O)(OCC)OC1c2[nH]cc(C(=O)OCc3ccccc3)c2-c2cc(C(=O)OC)[nH]c2C1OC (stereo not given) ?
false (0)

Would you mind telling me which call this test gave O=c1[nH]c(=O)n(C2OC3COC2C3O)cc1F (stereo not given) ?
false (0)

Would you mind telling me which call this test gave CCOC(OC1=CCCC1)C(C)[Se]c1ccccc1 (stereo not given) ?
false (0)

Would you mind telling me which call this test gave Cc1ccc(NP(=O)(Oc2ccccc2)N(CCCl)CCCl)cc1 (stereo not given) ?
false (0)

Would you mind telling me which call this test gave `Cc1cc(C)c(NC(=S)NC(=O)c2ccccc2)cc1C` ?
false (0)

Would you mind telling me which call this test gave COc1cc(C(C[N+](=O)[O-])SC(C)=O)ccc1OCc1ccccc1 (stereo not given) ?
false (0)

Would you mind telling me which call this test gave `Oc1cc(-c2ccc3ccccc3c2)nc2ncccc12` ?
false (0)

Would you mind telling me which call this test gave `C/C=C1/CN2CCc3c([nH]c4ccccc34)[C@@H]2C[C@@H]1Cc1nccc2c1[nH]c1cc(O)ccc12` ?
false (0)

Would you mind telling me which call this test gave CCOC(=O)C1=C(OC(OCC)C(CC)[Se]c2ccccc2)CCCC1 (stereo not given) ?
false (0)

Would you mind telling me which call this test gave `O=c1cc(-c2ccccc2)oc2cc(OCCCCCCCCCCOc3ccc4c(=O)cc(-c5ccccc5)oc4c3)ccc12` ?
false (0)

Would you mind telling me which call this test gave `Cc1nc2c(c(=O)[nH]1)S/C(=C(/C#N)c1nc3ccccc3[nH]1)N2c1ccccc1` ?
false (0)

The values you see were collected from ChEMBL document CHEMBL1201862.
